# assayed-system: T1, monovalent hVISTA-ECD (human VISTA extracellular domain with His tail) (human, UniProt Q9H7M9 33-193)
# T1 construct: analyte flowed over captured antibody; also called huVISTA-His
# T1 sequence (Q9H7M9 other isoform, or with tags, fused parts or gaps limits assumed): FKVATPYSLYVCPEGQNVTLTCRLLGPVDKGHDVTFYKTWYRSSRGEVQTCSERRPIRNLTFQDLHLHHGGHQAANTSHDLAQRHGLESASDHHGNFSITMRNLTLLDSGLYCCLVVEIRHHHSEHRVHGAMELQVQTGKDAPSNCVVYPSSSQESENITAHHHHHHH
# assay-comment: SPR, pH 6.0
assay-metric: kon (M⁻¹ s⁻¹)
State the answer as a number, implicitly in M⁻¹ s⁻¹.

binder	u	experimental-result
VISTA.4 A64G (41F11 Vk:A64G) (antibody, human IgG1, kappa, V domains shown, IgG1.3; also called P1-061520; P1-061520-10) VH: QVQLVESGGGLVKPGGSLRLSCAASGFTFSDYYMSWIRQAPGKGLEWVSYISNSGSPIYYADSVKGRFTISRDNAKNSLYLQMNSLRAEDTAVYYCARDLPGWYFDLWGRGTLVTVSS VL: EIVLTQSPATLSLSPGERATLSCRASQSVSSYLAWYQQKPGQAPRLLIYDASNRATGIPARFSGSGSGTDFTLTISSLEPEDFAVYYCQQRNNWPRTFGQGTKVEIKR	M⁻¹ s⁻¹	2.3e+06

Return value of kon for input P1-064392 (41F11_HC_Mutant: D31E/Y50W/S55E/Y100E 41F11_LC_Mutant: V29D/A64G/Q89E/R91T) (antibody, V domains shown, Kabat positions; also called P1-064392-1) VH: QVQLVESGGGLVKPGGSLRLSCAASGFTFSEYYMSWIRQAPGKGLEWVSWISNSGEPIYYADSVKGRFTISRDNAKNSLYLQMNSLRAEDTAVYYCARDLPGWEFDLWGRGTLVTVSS VL: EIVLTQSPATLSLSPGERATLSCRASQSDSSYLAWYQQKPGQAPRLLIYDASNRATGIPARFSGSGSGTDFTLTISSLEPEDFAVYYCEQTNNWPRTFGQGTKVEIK , no commentary.
7.7e+06
